Kindly supply the reported composite z-score values for the records listed here.
- Test system: Plasmodium falciparum Sir2 (PF13_0152, Sir2A)
- Method description: Plasmodium falciparum Sir2A binding compounds – biochemical, small-molecule microarray, 635 nm fluorescence, primary screen (AID 1098);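 further: score merges spot fluorescence intensity with its signal-to-noise ratio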
- Experimental setup: fluorescence 635 nm, higher = more signal
One number for each entry.

Dear reader, for each entry below, please note its composite z-score.
1. C=CCC(OC(C)=O)[C@@H]1[C@@H](N(Cc2cc3ccccc3o2)C(=O)c2cccc3ccccc23)c2cc(OCCCO)ccc2N1C(=O)Cc1ccc2ccccc2c1 (some centres undefined)
2. CCOC(=O)C[C@H]1[C@H](OC(=O)c2ccccc2-c2ccccc2)[C@@H](NC(=O)c2ccc(-c3ccccc3)cc2)c2cc(OCCCO)ccc2N1C(=O)c1ccccc1
3. C=C(COC)/C(=C/C[C@H](OC(C)=O)c1ccccc1OCCO)c1cnc2ccccc2c1
4. C=C(CCCC)C(=O)CC[C@H](OC(=O)c1ccccc1-c1ccccc1C(=O)O)c1ccc(CO)o1

[0.53, 0.154, 0.279, 1.15]

---

- Method description: JC-1 mitochondrial signal, unstimulated MM1S myeloma – cell-based, JC-1 fluorescence, 24 h, 100 nL compound, profiling panel (AID 1170); further: test concentration not given here
- Experimental setup: MM1S mitochondrial potential, higher = more signal
The label depends only on z-score: met if it is at least -0.4, not met if it is smaller.

Examples with answers:
• O=C(NCCN1CCOCC1)[C@@H]1c2ccccc2C(=O)N(Cc2cc(F)cc(C(F)(F)F)c2)[C@H]1c1ccc(CO)cc1 = met
• CC1CC/C=C\[C@H]2OC34C=CCN(Cn5nnc6ccccc65)C(=O)[C@H]3N(CCCO)C(=O)[C@@H]4C2C(=O)O1 (stereo partly drawn) = met
• CC(C)NC(=O)[C@@H]1c2ccccc2C(=O)N(C2CCCCC2)[C@H]1c1ccc(CO)cc1 = met
• C=CCC(OC(C)=O)[C@@H]1[C@@H](N(Cc2ccc(-c3cccc(C(F)(F)F)c3)o2)C(=O)c2ccc(C)cc2)c2cc(OCCCO)ccc2N1C(=O)c1ccc2ccccc2n1 (stereo partly drawn) = met
• COC(=O)[C@@]1(Cc2ccc(F)cc2)[C@H]2c3cc(C(=O)N(C)C)n(Cc4ccccn4)c3C[C@H]2CN1C(=O)c1ccccc1 = not met

Does the compound CC(C)OC(=O)C1=CCC(c2cccc(Cl)c2)O1 (stereo not drawn) have recorded z-score that is -0.4 or more?
not met

// inclusive: z-score at least -0.4? input: `C=C(/C(=C/C[C@@H](OC(=O)c1ccncc1)c1ccc(CO)o1)c1cc(C(=O)OC)ccc1OC)C(C)C`
not met

---

- Method description: probe aInhba binding on compound microarray – biochemical, small-molecule microarray, 635/667 nm fluorescence, primary screen (AID 1148);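 further: score merges 667nm spot fluorescence with signal-to-noise for antibody binding to printed compounds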
- Experimental setup: higher = more signal
Short version: composite z-score at least 0.2 is MET, less is NOT MET.

Identify whether the reported composite z-score of the following molecule is 0.2 or greater: `COc1ccc([Si](C)(C)[C@H]2[C@H](CC(=O)N3CCC[C@H]3CO)O[C@@]3(C(=O)N(c4ccccc4)c4ccccc43)[C@@H]2C)cc1`
NOT MET

Please indicate if the recorded composite z-score for `CO[C@H]1O[C@H](CO)[C@@H](OC(=O)Nc2ccccc2-c2ccccc2)[C@H](OC(=O)Nc2ccccc2-c2ccccc2)[C@H]1OC(=O)Nc1ccccc1-c1ccccc1` meets or exceeds 0.2.
MET

I'd appreciate it if you could say whether O=C(NCC(O)CO)[C@@]1(Cc2ccccc2)N=C(c2ccc(OCCCO)cc2)O[C@H]1c1ccccc1 (stereo partly drawn) has composite z-score at least equal to 0.2.
MET

---

- Target of assay: Follistatin-related protein 3 (Homo sapiens)
- Method description: compounds binding follistatin-related protein 3 – biochemical, small-molecule microarray, 635 nm fluorescence, primary screen (AID 1105);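 further: score merges emission near 667 nm and signal to noise per printed spot across three slides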
- Experimental setup: FSTL3 binding, higher = more signal
Test readout: composite z-score
One number for each entry.

• COCCOC(=O)N1C(=O)[C@@]2(c3ccccc31)[C@H](C(=O)N1CCCCCCC1)[C@H]1C(=O)O[C@H](c3ccccc3)[C@H](c3ccccc3)N1[C@@H]2c1ccccc1OCCO = 1.52
• CC(c1ccccc1)C(O)C1C=CC2C(=O)N(c3ccccc3)C(=O)C2N1Nc1ccccc1F (stereo not drawn) = 0.683

For each of the items listed, what is its composite z-score?
1. CCCC[C@@H]1C[C@H]1[C@@H](NC(=O)c1ccccc1)c1ccccc1
2. CCN(CC)c1ccc(N2CC=CC34O[C@@H]5/C=C\CCC(C)OC(=O)C5[C@H]3C(=O)N(CCCCCCO)[C@@H]4C2=O)cc1 (stereo partly drawn)
3. O=C1[C@H]2C=C(Br)[C@H](C[C@@H]2OCCOCCO)[C@@]12CO2
4. C=C(/C(=C/C[C@@H](OC(C)=O)c1ccc(CO)o1)c1cnc2ccccc2c1)C(C)C
5. O=C1O[C@@H](c2ccccc2)[C@@H](c2ccccc2)N2[C@@H](c3ccc(O)cc3)[C@]3(C(=O)Nc4ccccc43)[C@@H](C(=O)N3CCCCCCC3)[C@H]12
6. COC(=O)[C@@]1(Cc2ccc(F)cc2)[C@H]2c3cc(C(=O)N4CCCC4)n(Cc4ccc(Cl)c(C(F)(F)F)c4)c3C[C@H]2CN1C(=O)c1ccccc1

[0.227, -0.622, 0.118, 1.45, 1.58, 1.18]

---

Would you mind telling me the reported z-score of each entry?
- Method description: compound effects on multiple myeloma cell viability – MM1S, calcein-AM fluorescence, 48 h, basal, profiling panel (AID 1165);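 further: viability of MM1S multiple myeloma cells under basal unstimulated conditions; test concentration not given here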
- Experimental setup: higher = more signal
Numbers only.

Would you please look over these solved cases?
- CCCCCN1CC=CC23O[C@@H]4C=CCCOC(=O)C4[C@H]2C(=O)N(CCCO)[C@@H]3C1=O (stereo partly specified): 0.0357
- C=C(COC)C(=O)CC[C@@H](OC(=O)c1ccccc1-c1ccccc1C(=O)O)c1ccc(CO)o1: -1.69
- O=C(NCC(O)CO)[C@@]1(Cc2ccccc2)COC(c2ccc(OCCCO)cc2)=N1 (stereo partly specified): -0.467
- COc1ccc([Si](C)(C)[C@@H]2[C@@H](CCn3cc([C@H](O)c4ccccc4)nn3)O[C@]3(C(=O)N(C)c4ccccc43)[C@H]2C)cc1: -2.69
- C=CC[C@@]1(C(=O)NCc2ccccc2)N=C(c2ccc(OCCCO)cc2)O[C@@H]1c1ccccc1CN=[N+]=[N-]: -1.84
- Cc1ccc(S[C@]2(C(=O)NCC(F)(F)F)CC(=O)N(C3Cc4ccccc4C3)[C@@H]2c2ccc(CO)cc2I)cc1: -2.1

Record z-score per entry; entries follow.
1. CCCNC(=O)[C@@]1(C)c2ccccc2C(=O)N(Cc2ccc(OC(F)(F)F)cc2)[C@H]1c1ccc(CO)cc1
2. C=C[C@H](OC)[C@@H](OC(=O)Nc1ccc(SC)cc1)c1ccc(OCCO)cc1
3. C=CCN1Cc2ccccc2C[C@]2(N=C(c3ccc(OCCCO)cc3)O[C@@H]2c2ccccc2)C1=O
4. CC(=O)N1Cc2ccccc2C[C@@]2(N=C(c3ccc(OCCCO)cc3)O[C@H]2c2ccccc2)C1=O
5. O=C1OCC=C[C@H]2OC34C=CCN(c5ccc(Cl)cc5)C(=O)[C@H]3N(CCCO)C(=O)[C@@H]4[C@@H]12 (stereo partly specified)
6. C=C(/C(=C/C[C@@H](OC(=O)c1ccncc1)c1ccc(CO)o1)c1cc(C(=O)OC)ccc1OC)C(C)C
7. CC(=O)n1cc(C(O)C2C=CC3C(=O)N(c4ccccc4)C(=O)C3N2Nc2ccc(C#N)cc2)c2ccccc21 (stereo unspecified)
8. [N-]=[N+]=Nc1ccccc1[C@@H]1OC(c2ccc(OCCCO)cc2)=N[C@]1(CCS(=O)(=O)c1ccccc1)C(=O)N1CCCCC1

0.328
-0.164
-3.58
-2.19
0.237
-2.99
0.245
-0.92

Parameter requested: z-score. Apply to each item below.
1. CCCCN1CC=CC23O[C@@H]4C=CCCOC(=O)C4[C@H]2C(=O)N(CCCO)[C@@H]3C1=O (stereo partly specified)
2. CCCCCCCCCCC(O)C1C=CC2C(=O)N(c3ccccc3)C(=O)C2N1Nc1ccc([N+](=O)[O-])cc1 (stereo unspecified)

0.438
-3.31

---

- Method description: forskolin-driven CRE-LacZ activity in PC12 – cell-based, CRE-LacZ reporter, forskolin-stimulated, primary screen (AID 1146);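 further: PC12 cells with 6xCRE LacZ reporter stimulated by forskolin 10 µM; beta-galactosidase reporter signal reflecting CREB driven transcription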
- Experimental setup: luminescence, 4.5 h, higher = more signal, called active from +8 up or from −8 down
Label rule, in plain words: z-score of -0.7 and up is T, under -0.7 is F.

- O[C@@H](Cc1ccccc1)[C@@H](/C=C/c1ccccc1)NCc1ccccc1Br: F
- CC(C)(C)OC(=O)CC[C@@]1(C(N)=O)N=C(c2ccc(OCCCO)cc2)O[C@@H]1c1ccccc1N=[N+]=[N-]: T
- C=C(CCCC)C(=O)CC[C@@H](OC(=O)c1ccccc1-c1ccccc1C(=O)O)c1ccc(CO)o1: T
- Oc1ccc2cc[n+](Cc3cccc(OC(F)(F)F)c3)cc2c1: T

Would you kindly look at the next entry?
Quick check, z-score >= -0.7? `CCOC(=O)C1=CC[C@@H](c2cccc(Cl)c2)N(S(=O)(=O)c2ccc(C)cc2)[C@H]1c1ccc(C#N)cc1`
T

These data points were gathered from PubChem BioAssay.
